target: Human CD40 (human, UniProt P25942 21-277); experiment: cell-based or functional assay
Sequence (P25942 21-277 limits assumed): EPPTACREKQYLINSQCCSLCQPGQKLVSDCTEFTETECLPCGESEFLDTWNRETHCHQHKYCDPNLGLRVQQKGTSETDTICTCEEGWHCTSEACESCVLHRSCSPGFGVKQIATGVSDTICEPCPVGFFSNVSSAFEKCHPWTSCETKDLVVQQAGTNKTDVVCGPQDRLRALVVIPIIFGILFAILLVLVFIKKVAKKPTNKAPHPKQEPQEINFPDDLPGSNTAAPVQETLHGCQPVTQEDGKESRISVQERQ
property-measured: Antagonist: Jurkat/Reporter assay (IC50 nM)
Numbers only, in nM.

[ask] Fill blank: measured Antagonist: Jurkat/Reporter assay (IC50 nM) of the binder huAb1v1CDR2v15 (antibody, V domains shown) VH: EVQLVESGGGLVKPGGSLRLSCAASGFTFSDYGMNWVRQAPGKGLEWIAYISSGRYNIYYADTVKGRFTISRDNAKNSLYLQMNSLRAEDTAVYYCARSWGYFDVWGQGTTVTVSS VL: DIVMTQSPDSLAVSLGERATINCKSSQSLLNRGNQKNYLTWFQQKPGQPPKLLIYWASTRESGVPDRFSGSGSGTDFTLTISSLQAEDVAVYYCQNDYTYPLTFGQGTKLEIK is ____.
[reply] 340
